The measurements presented in this section are drawn from the supplement of paper PMC7877785.

Assay: self-splicing fitness, log relative to wild type (ln ratio); higher = more splicing; Tetrahymena group I intron in knt gene, E. coli kanamycin selection, DiMSum; sequences stand for … in CUCUCU…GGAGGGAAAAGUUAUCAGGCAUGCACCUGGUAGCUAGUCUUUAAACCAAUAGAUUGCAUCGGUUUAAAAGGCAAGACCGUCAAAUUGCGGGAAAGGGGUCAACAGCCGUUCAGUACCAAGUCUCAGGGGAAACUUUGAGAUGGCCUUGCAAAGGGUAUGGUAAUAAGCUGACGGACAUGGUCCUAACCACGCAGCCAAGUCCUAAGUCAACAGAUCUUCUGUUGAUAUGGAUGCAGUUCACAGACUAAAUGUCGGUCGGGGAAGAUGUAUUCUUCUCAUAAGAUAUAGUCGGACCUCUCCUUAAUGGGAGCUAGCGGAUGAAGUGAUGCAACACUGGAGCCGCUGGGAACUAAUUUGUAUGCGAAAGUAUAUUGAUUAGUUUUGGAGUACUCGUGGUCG;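 also: selection with 25 µg/mL kanamycin versus none on LB agar overnight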
Conditions: 37 °C
Consider the following sequences and their measured self-splicing fitness (ln) readings.

Some entries whose results are on file:
    biopolymer_sequence  endpoint_value
0  CUCAAGCAAUAUUACGAGGA           -1.66
1  UGCGAGCAAUAUUACGACAA          -0.809
2  CAAUAGCAAUAUUACGAUAU           -2.59

Documented self-splicing fitness (ln) of `AUUGAGCAAUAUUACGUUGG` : -0.682

Item: `UAUCAGCAAUAUUACGGGUG` | self-splicing fitness (ln): -0.102

What the record says about `GUGCAGCAAUAUUACGACCG` : self-splicing fitness (ln) is -1.5

The reported value for `UGGUAGCAAUAUUACGGCGG` in terms of self-splicing fitness (ln) is -0.0108

Noted for `CGAGAGCAAUAUUACGUCUU` : its self-splicing fitness (ln) reads -1.39

// `GCGGAGCAAUAUUACGGAAG` : self-splicing fitness (ln) value = -2.11

// sample `CCUCAGCAAUAUUACGCGGA` , its self-splicing fitness (ln) was -3.28

The recorded self-splicing fitness (ln) for entry `CAAUAGCAAUAUUACGGUUU` equals -1.88

Short answer for `CAAAAGCAAUAUUACGCAUU` : self-splicing fitness (ln) was -3.29

// sample `GCUUAGCAAUAUUACGUUGC` , its self-splicing fitness (ln) was -0.535

Reported self-splicing fitness (ln) for `GUUUAGCAAUAUUACGGGGU` was -2.29

* * *

Parameter self-splicing fitness (ln): see the listing below.
Test: self-splicing fitness, log relative to wild type (ln ratio); higher = more splicing; Tetrahymena group I intron in knt gene, E. coli kanamycin selection, DiMSum; sequences stand for … in CUCUCU…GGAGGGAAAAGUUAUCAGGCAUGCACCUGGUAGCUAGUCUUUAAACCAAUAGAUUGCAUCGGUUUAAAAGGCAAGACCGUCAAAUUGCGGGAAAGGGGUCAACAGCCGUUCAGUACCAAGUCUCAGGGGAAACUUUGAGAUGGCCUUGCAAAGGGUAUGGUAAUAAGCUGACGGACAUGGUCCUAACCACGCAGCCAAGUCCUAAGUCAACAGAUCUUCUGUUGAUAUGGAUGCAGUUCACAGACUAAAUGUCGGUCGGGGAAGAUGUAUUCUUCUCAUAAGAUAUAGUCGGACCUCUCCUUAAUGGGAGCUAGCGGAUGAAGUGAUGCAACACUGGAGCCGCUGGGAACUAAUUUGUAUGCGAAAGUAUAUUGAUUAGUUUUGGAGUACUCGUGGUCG
Conditions: 37 °C
Respond using a number only.

Consider the worked cases shown below.
>>> df
    biopolymer_sequence  endpoint_value
0  AACCAGCAAUAUUACGUGUU           -2.47
1  AGUGAGCAAUAUUACGGGUC           -3.06
2  CCGUAGCAAUAUUACGGGCC           -2.83
3  UUAUAGCAAUAUUACGAAAA           -1.31
4  AUAAAGCAAUAUUACGAUCG            0.19

self-splicing fitness (ln) reading for `ACCGAGCAAUAUUACGGCGU` : -0.172

Item: `CCGCAGCAAUAUUACGACGG` | self-splicing fitness (ln): -2.64

// field: self-splicing fitness (ln); key: `AAUCAGCAAUAUUACGUAUC` ; value = 0.251

* * *

Assay: self-splicing fitness, log relative to wild type (ln ratio); higher = more splicing; Tetrahymena group I intron in knt gene, E. coli kanamycin selection, DiMSum; sequences stand for … in CUCUCU…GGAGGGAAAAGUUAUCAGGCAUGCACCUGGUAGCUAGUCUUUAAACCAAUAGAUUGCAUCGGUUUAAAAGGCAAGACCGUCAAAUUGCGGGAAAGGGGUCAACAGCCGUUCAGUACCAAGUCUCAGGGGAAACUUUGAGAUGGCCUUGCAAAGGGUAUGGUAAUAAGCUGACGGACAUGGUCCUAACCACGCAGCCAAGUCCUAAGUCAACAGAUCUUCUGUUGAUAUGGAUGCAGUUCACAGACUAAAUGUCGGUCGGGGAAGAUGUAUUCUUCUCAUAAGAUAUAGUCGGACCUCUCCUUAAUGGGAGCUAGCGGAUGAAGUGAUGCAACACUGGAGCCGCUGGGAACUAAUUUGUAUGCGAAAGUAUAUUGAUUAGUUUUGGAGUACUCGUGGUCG
Details: 37 °C
Parameter threshold = -0.2. Response is yes when self-splicing fitness (ln) meets or exceeds it, else no.

>>> print(df.to_string())
    biopolymer_sequence  classification
0  CGUAAGCAAUAUUACGUGGC              no

Textbook exercise: given the entry `GAACAGCAAUAUUACGACUU` , state whether its self-splicing fitness (ln) is greater than or equal to -0.2.
yes

Does the reported self-splicing fitness (ln) for `UUCCAGCAAUAUUACGGCUA` fall at or above the -0.2 mark?
no

* * *

Experiment: self-splicing fitness, log relative to wild type (ln ratio); higher = more splicing; Tetrahymena group I intron in knt gene, E. coli kanamycin selection, DiMSum; sequences stand for … in CUCUCU…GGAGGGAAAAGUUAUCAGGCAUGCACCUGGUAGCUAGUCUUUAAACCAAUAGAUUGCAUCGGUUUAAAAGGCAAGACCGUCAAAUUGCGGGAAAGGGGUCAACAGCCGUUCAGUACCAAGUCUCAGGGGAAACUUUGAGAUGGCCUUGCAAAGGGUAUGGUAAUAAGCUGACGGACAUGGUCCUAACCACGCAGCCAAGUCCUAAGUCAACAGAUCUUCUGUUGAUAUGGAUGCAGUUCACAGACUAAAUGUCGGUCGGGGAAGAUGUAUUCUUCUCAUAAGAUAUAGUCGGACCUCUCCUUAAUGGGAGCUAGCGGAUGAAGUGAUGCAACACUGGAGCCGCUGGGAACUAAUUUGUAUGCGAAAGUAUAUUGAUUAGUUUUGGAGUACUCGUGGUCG
Settings: 37 °C
Please enter class 1 where self-splicing fitness (ln) is greater than or equal to -2, and class 0 where it is lower.

>>> df
    biopolymer_sequence  classification
0  UCGAAGCAAUAUUACGCGAG         class 1
1  AACGAGCAAUAUUACGAUGG         class 0
2  CCGUAGCAAUAUUACGGUCU         class 0

Assess whether reported self-splicing fitness (ln) for `AAACAGCAAUAUUACGCGAC` sits at -2 or higher.
class 1

Hello, I need to know if `CGGAAGCAAUAUUACGUACC` has measured self-splicing fitness (ln) not below -2. Thanks!
class 1

Identify whether the reported self-splicing fitness (ln) of the following sequence is -2 or greater: `UACUAGCAAUAUUACGGUGG`
class 1

* * *

Quick list: self-splicing fitness (ln) per entry.
Experiment: self-splicing fitness, log relative to wild type (ln ratio); higher = more splicing; Tetrahymena group I intron in knt gene, E. coli kanamycin selection, DiMSum; sequences stand for … in CUCUCU…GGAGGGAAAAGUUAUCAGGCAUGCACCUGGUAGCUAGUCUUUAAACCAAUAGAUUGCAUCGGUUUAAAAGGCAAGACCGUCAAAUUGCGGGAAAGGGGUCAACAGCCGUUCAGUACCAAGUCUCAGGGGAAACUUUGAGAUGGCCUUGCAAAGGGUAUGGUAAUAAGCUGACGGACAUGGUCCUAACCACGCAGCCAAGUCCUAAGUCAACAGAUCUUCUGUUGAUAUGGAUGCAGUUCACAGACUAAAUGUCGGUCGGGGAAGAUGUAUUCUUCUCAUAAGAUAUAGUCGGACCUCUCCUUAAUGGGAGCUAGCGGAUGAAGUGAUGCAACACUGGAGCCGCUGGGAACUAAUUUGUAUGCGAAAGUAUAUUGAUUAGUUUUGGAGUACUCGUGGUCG
Conditions: 30 °C
// return a plain number; no unit text

Please review the following examples before continuing.
    biopolymer_sequence  endpoint_value
0  ACGCAGCAAUAUUACGCGAU           -3.38
1  CACAAGCAAUAUUACGUCCA           -3.23
2  CUAGAGCAAUAUUACGCUGC            -3.8
3  UGACAGCAAUAUUACGCUCC           -1.28

Recorded self-splicing fitness (ln) (sequence `UCAAAGCAAUAUUACGAUAA` ): -1.43

Lab book: self-splicing fitness (ln) of `CCACAGCAAUAUUACGAAGC` noted as -3.85

Given item `UCAGAGCAAUAUUACGACAC` , the value recorded as its self-splicing fitness (ln) is -2.63

The value of self-splicing fitness (ln) measured for the sequence `AUUGAGCAAUAUUACGCCCA` turned out to be -2.25

The recorded self-splicing fitness (ln) for entry `GACUAGCAAUAUUACGCCCA` equals -0.026
